Where do these numbers come from? They come from patent EP4692071A1.

test: Residual rate (A90/A0×100) after 90 h accelerated deterioration in xenon weather meter X25, color developing durability; type: physicochemical; settings: photochromic cured product, thickness 1 mm (kneading method); after 90 h accelerated deterioration
experimental readout: Residual rate (%)
Form entry: value (%) — number only.

*Q* Recorded Residual rate of CCCOc1ccc(C2(c3ccc(OCCC)cc3)C=Cc3c4c(c5cc(N6CCc7ccccc76)c(OC)cc5c3O2)-c2ccc(-c3ccc(C)cc3)cc2C42CCCCCCC2)cc1 [Formula (35A)] , please.
*A* 80

*Q* Recorded Residual rate of COc1ccc(C2(c3ccc(OC)c(OC)c3)C=Cc3c4c(c5cc(N6CCc7ccccc76)c(OC)cc5c3O2)-c2ccccc2C4(CCC(F)(F)F)CCC(F)(F)F)cc1 (stereo not drawn) [Formula (67A)] , please.
*A* 75

*Q* Recorded Residual rate of COc1ccc(C2(c3ccc(OC)cc3)C=Cc3c4c(c5cc(N6CCc7cc(C)ccc76)c(OC)cc5c3O2)-c2ccccc2C4(C)C)cc1 [Formula (52A)] , please.
*A* 82

====

experiment: High-temperature color development rate (A35/A23×100), temperature dependency; assay type: physicochemical; settings: photochromic laminate by coating method
Recorded measurements of A35/A23 *100 (%), one per entry
Form entry: value (%) — number only.

Solved cases below.
molecule: CCCC1(CCC)c2ccccc2-c2c1c1c(c3cc(OC)c(N(c4ccccc4)c4ccc(C)cc4)cc23)OC(c2ccc(OC)cc2)(c2ccc(OC)cc2)C=C1
unit string: %
A35/A23 *100 (%): 69
//
molecule: CCCCN(c1ccc(F)cc1)c1cc2c3c(c4c(c2cc1OC)OC(c1ccc(OC)cc1)(c1ccc(OC)cc1)C=C4)C(CCCCOC)(CCCCOC)c1ccccc1-3
unit string: %
A35/A23 *100 (%): 67
//
molecule: CCCCN(c1ccc(C(F)(F)F)cc1)c1cc2c3c(c4c(c2cc1OC)OC(c1ccc(C)cc1)(c1ccc(OC)cc1)C=C4)C1(CCCCCCCCCCC1)c1cc(OC)ccc1-3 (stereo not drawn)
unit string: %
A35/A23 *100 (%): 74
//
molecule: CCCCCCOc1ccc(C2(c3ccc(OC)cc3)C=Cc3c4c(c5cc(N(c6ccc(C)cc6)c6ccc(OC)cc6)c(OC)cc5c3O2)-c2ccccc2C42CC(C)(C)CC(C)(C)C2)cc1 (stereo not drawn)
unit string: %
A35/A23 *100 (%): 62
//
molecule: CCCCC1(CCCC)c2ccccc2-c2c1c1c(c3cc(OC)c(N(c4ccc(F)cc4)c4ccc(F)cc4)cc23)OC(c2ccc(OC)cc2)(c2ccc(OC)cc2)C=C1
unit string: %
A35/A23 *100 (%): 67

*Q* Recorded A35/A23 *100 (%) of "CCCCCCCCC1(CCCCCCCC)c2cc([Si](c3ccccc3)(c3ccccc3)c3ccccc3)ccc2-c2c1c1c(c3cc(OC)c(N(c4ccccc4)c4ccccc4)cc23)OC(c2ccc(OCCC)cc2)(c2ccc(OCCC)cc2)C=C1" , please.
*A* 69

====

experiment: High-temperature color development rate (A35/A23×100), temperature dependency; format: physicochemical; settings: photochromic laminate prepared by coating method
Recorded measurements of A35/A23 *100, one per entry
Form entry: value (%) — number only.

compound: COCCOCCOCCC1(CCOCCOCCOC)c2ccccc2-c2c1c1c(c3cc(OC)c(N4CCc5cc(F)ccc54)cc23)OC(c2ccc(OC)cc2)(c2ccc(OC)cc2)C=C1 [Formula (50A)]
experimental readout: A35/A23 *100
unit string: %
recorded number: 70
--
compound: COc1ccc(C2(c3ccc(N(c4ccccc4)c4ccccc4)cc3)C=Cc3c4c(c5cc(N6CCc7ccccc76)c(OC)cc5c3O2)-c2ccccc2C42CCC3(CCCCC3)CC2)cc1 (centres unmarked) [Formula (57A)]
experimental readout: A35/A23 *100
unit string: %
recorded number: 70

*Q* Recorded A35/A23 *100 of COc1ccc(C2(c3ccc(N4CCOCC4)cc3)C=Cc3c4c(c5cc(N6CCc7ccccc76)c(C)cc5c3O2)-c2ccc(OC)cc2C4(CCCC(F)(F)F)CCCC(F)(F)F)cc1 (centres unmarked) [Formula (45A)] , please.
*A* 67

*Q* Recorded A35/A23 *100 of CCCOc1ccc(C2(c3ccc(OC)cc3)C=Cc3c4c(c5cc(N6CCc7ccccc76)c(C)cc5c3O2)-c2ccccc2C4(CCC)CCC)cc1 (centres unmarked) [Formula (31A)] , please.
*A* 65

*Q* Recorded A35/A23 *100 of CCC1(CC)CCC2(CC1)c1cc(OC(F)(F)F)ccc1-c1c2c2c(c3cc(OC)c(N4CCc5ccccc54)cc13)OC(c1ccc(OC)cc1)(c1ccc(OCCCO[Si](C)(C)CC[Si](O[Si](C)(C)C)(O[Si](C)(C)C)O[Si](C)(C)C)cc1)C=C2 (centres unmarked) [Formula (74A)] , please.
*A* 64

====

test: 23°C color optical density (A23): absorbancy difference ε(240)-ε(0) after 240 s light irradiation at 23°C; format: physicochemical; settings: binder sheet (binder method), 240 s irradiation
Recorded measurements of A23 (-), one per entry

molecule: COc1ccc(C2(c3ccc(OC)cc3)C=Cc3c4c(c5cc(N6CCCCC6)c(OC)cc5c3O2)-c2ccccc2C4(C)C)cc1 [Formula (E), reference compound]
A23 (-): 1.85 -

*Q* Recorded A23 (-) of "CCCC1(CCC)c2ccccc2-c2c1c1c(c3cc(OC)c(N4CCOc5ccccc54)cc23)OC(c2ccc(OC)cc2)(c2ccc(OC)cc2)C=C1" , please.
*A* 1.32 -

*Q* Recorded A23 (-) of "CCCOc1ccc(C2(c3ccc(OCCC)cc3)C=Cc3c4c(c5cc(N(CCOC)c6ccccc6)c(OC)cc5c3O2)-c2ccccc2C42CCCCCCC2)cc1" , please.
*A* 1.37 -

*Q* Recorded A23 (-) of "CCCOc1ccc(C2(c3ccc(OCCC)cc3)C=Cc3c4c(c5cc(N(C)c6ccc(C)cc6)c(OC)cc5c3O2)-c2ccccc2C4(CCCCOC)CCCCOC)cc1" , please.
*A* 1.23 -

*Q* Recorded A23 (-) of COc1ccc(C2(c3ccc(N4CCOCC4)cc3)C=Cc3c4c(c5cc(N6CCOc7ccccc76)c(C)cc5c3O2)-c2ccc(OC)cc2C4(CCCCF)CCCCF)cc1 (centres unmarked) , please.
*A* 1.27 -

====

assay: High-temperature color development rate (A35/A23×100), temperature dependency; type: physicochemical; conditions: photochromic cured product, thickness 1 mm (kneading method)
Recorded measurements of A35/A23 *100, one per entry

*Q* Recorded A35/A23 *100 of COc1ccc(C2(c3ccc(OC)cc3)C=Cc3c4c(c5cc(N6CCc7ccccc76)c(OC)cc5c3O2)-c2ccccc2C4(C)C)cc1 [Formula (28A)] , please.
*A* 75%

*Q* Recorded A35/A23 *100 of CCC1(CC)CCC2(CC1)c1cc(OC(F)(F)F)ccc1-c1c2c2c(c3cc(OC)c(N4CCc5ccccc54)cc13)OC(c1ccc(OC)cc1)(c1ccc(OCCCO[Si](C)(C)CC[Si](O[Si](C)(C)C)(O[Si](C)(C)C)O[Si](C)(C)C)cc1)C=C2 (centres unmarked) [Formula (74A)] , please.
*A* 65%

*Q* Recorded A35/A23 *100 of COc1ccc(C2(c3ccc(OC)cc3)C=Cc3c4c(c5cc(N6CCc7cc(C)ccc76)c(OC)cc5c3O2)-c2ccccc2C4(C)C)cc1 [Formula (52A)] , please.
*A* 76%

====

test: Maximum absorption wavelength (λmax) after color development, spectrophotometer MCPD3000; format: physicochemical; settings: binder sheet (binder method), urethaneurea resin photochromic layer between polycarbonate sheets, 0.25 mmol per 100 parts by mass resin
experimental readout: Maximum absorption wavelength (nm)
Form entry: value (nm) — number only.

*Q* Recorded Maximum absorption wavelength (nm) of "COc1ccc(C2(c3ccc(OC)cc3)C=Cc3c4c(c5cc(N(C)c6ccccc6)c(OC)cc5c3O2)-c2ccccc2C4(C)C)cc1" , please.
*A* 501

====

Recorded measurements of Residual rate (%), one per entry
experiment: Residual rate (A90/A0×100) after 90 h accelerated deterioration in xenon weather meter X25, color developing durability; type: physicochemical; conditions: cured product by kneading method, 1 mm; xenon weather meter 90 hours
Form entry: value (%) — number only.

compound: CCCCCCOc1ccc(C2(c3ccc(OC)cc3)C=Cc3c4c(c5cc(N(c6ccc(C)cc6)c6ccc(OC)cc6)c(OC)cc5c3O2)-c2ccccc2C42CC(C)(C)CC(C)(C)C2)cc1 (centres unmarked)
recorded number: 81

*Q* Recorded Residual rate (%) of "COc1ccc(C2(c3ccc(OC)cc3)C=Cc3c4c(c5cc(N6CCOc7ccccc76)c(OC)cc5c3O2)-c2ccccc2C4(C)C)cc1" , please.
*A* 83

*Q* Recorded Residual rate (%) of "COc1ccc(C2(c3ccc(OC)cc3)C=Cc3c4c(c5cc(N(C)c6ccccc6)c(OC)cc5c3O2)-c2ccccc2C4(C)C)cc1" , please.
*A* 89

*Q* Recorded Residual rate (%) of "COc1ccc(C2(c3ccc(OC)cc3)C=Cc3c4c(c5cc(N(c6ccccc6)c6ccccc6)c(OC)cc5c3O2)-c2ccccc2C4(C)C)cc1" , please.
*A* 88

*Q* Recorded Residual rate (%) of "CCCC1(CCC)c2ccccc2-c2c1c1c(c3cc(OC)c(N4CCOc5ccccc54)cc23)OC(c2ccc(OC)cc2)(c2ccc(OC)cc2)C=C1" , please.
*A* 89
